System: C. elegans wild-type strain N2
Test: Same C. elegans pumping assay format using wild-type strain N2
Type: in vivo
Settings: Caenorhabditis elegans, read-out: EC50 (μM) Wild type worm N2
Under this convention, true (1) denotes EC50 strictly below 40 µM and false (0) denotes EC50 at or above 40 µM.

## Input For this compound, is EC50 lower than 40 µM? `Cc1nc(Nc2ccc(F)cc2)sc1C(=O)N[C@H](C)c1ccc2ccccc2c1`
## Output false (0)

## Input For this compound, is EC50 lower than 40 µM? `Cc1nc(Nc2ccc(F)cc2)sc1C(=O)N[C@@H](C)c1ccc2ccccc2c1`
## Output true (1)

## Input For this compound, is EC50 lower than 40 µM? `O=C(N[C@@H]1CCCC[C@H]1OCc1ccccc1)c1csc(Nc2ccc(F)cc2)n1`
## Output false (0)

## Input For this compound, is EC50 lower than 40 µM? `Cc1cc(C)cc(Nc2nc(C(=O)N[C@@H]3CCC[C@H]3OCc3ccccc3)cs2)c1`
## Output true (1)

## Input For this compound, is EC50 lower than 40 µM? `Cc1cccc(C)c1Nc1nc(C(=O)N[C@H](C)c2ccc([N+](=O)[O-])cc2)cs1`
## Output true (1)
